Below, each of the compounds is paired with its reported viability, T/C value.
Test system: 233499-124-R-J3-PDC complex spheroid viability
Test: Anticancer human tumor 233499-124-R-J3-PDC patient-derived colon adenocarcinoma cell line growth inhibition [CLK]
Conditions: second compound 0.1 µM; first compound 0.1 µM; stronger effect = lower value
Source text: A high-throughput screen of multi-cell type tumor spheroids was designed to identify active combinations of […] and targeted small molecules. Complex spheroids include a stromal component modeled by human endothelial cells (HUVEC) and fibroblasts modeled by human mesenchymal stem cells (MSCs). […] Compounds. […] If the clinical Cmax for an agent had not been determined, the highest concentration tested was 10 microM. […]
Number only, in %; omit the unit.

• CC1(C)CCC(CN2CCN(c3ccc(C(=O)NS(=O)(=O)c4ccc(NCC5CCOCC5)c([N+](=O)[O-])c4)c(Oc4cnc5[nH]ccc5c4)c3)CC2)=C(c2ccc(Cl)cc2)C1 + CNC(=O)c1ccc(Nc2nc(OC3CCCC3)c3c(-c4ccc5nc(C)oc5c4)c[nH]c3n2)c(OC)c1 = 70.2
• CCc1c2c(nc3ccc(O)cc13)-c1cc3c(c(=O)n1C2)COC(=O)[C@]3(O)CC + CN1CCN(c2cc(C(=O)Nc3cc4cc(-c5cnn(C)c5)ccc4cn3)ccn2)CC1 = 88.1
• COc1cccc2c1C(=O)c1c(O)c3c(c(O)c1C2=O)CC(O)(C(=O)CO)CC3OC1CC(N)C(O)C(C)O1 (stereo not given) + CN1CCN(c2cc(C(=O)Nc3cc4cc(-c5cnn(C)c5)ccc4cn3)ccn2)CC1 = 110
• CC1COCCN1c1cc(C2(S(C)(=N)=O)CC2)nc(-c2ccnc3[nH]ccc23)n1 (stereo not given) + CNC(=O)c1ccc(Nc2nc(OC3CCCC3)c3c(-c4ccc5nc(C)oc5c4)c[nH]c3n2)c(OC)c1 = 76.9
• Nc1ccccc1NC(=O)c1ccc(CNC(=O)OCc2cccnc2)cc1 + CNC(=O)c1ccc(Nc2nc(OC3CCCC3)c3c(-c4ccc5nc(C)oc5c4)c[nH]c3n2)c(OC)c1 = 67.4

Query COc1ccc([C@@H](O)c2cc(-c3ncnc4cc(N5CCOCC5)ccc34)c(F)cc2Cl)nn1 + CNC(=O)c1ccc(Nc2nc(OC3CCCC3)c3c(-c4ccc5nc(C)oc5c4)c[nH]c3n2)c(OC)c1 yields viability, T/C of 65.2

Input COc1ccc([C@@H](O)c2cc(-c3ncnc4cc(N5CCOCC5)ccc34)c(F)cc2Cl)nn1 + CN1CCN(c2cc(C(=O)Nc3cc4cc(-c5cnn(C)c5)ccc4cn3)ccn2)CC1 . Output viability, T/C: 95

Memo: COC1C=CCC(C)C(C)S(=O)(=O)NC(=O)c2ccc3c(c2)N(CC2CCC21)CC1(CCCc2cc(Cl)ccc21)CO3 (stereo not given) + CNC(=O)c1ccc(Nc2nc(OC3CCCC3)c3c(-c4ccc5nc(C)oc5c4)c[nH]c3n2)c(OC)c1 , reported viability, T/C: 57.4

// sample CCN1CCN(Cc2ccc(Nc3ncc(F)c(-c4cc(F)c5nc(C)n(C(C)C)c5c4)n3)nc2)CC1 + CNC(=O)c1ccc(Nc2nc(OC3CCCC3)c3c(-c4ccc5nc(C)oc5c4)c[nH]c3n2)c(OC)c1 , its viability, T/C was 83.8

Quick note, viability, T/C for O=c1[nH]cc(F)c(=O)[nH]1 + CNC(=O)c1ccc(Nc2nc(OC3CCCC3)c3c(-c4ccc5nc(C)oc5c4)c[nH]c3n2)c(OC)c1 landed at 72.4

----------
Measured viability, T/C accompanies every entry in the list below.
test system: 233499-124-R-J3-PDC complex spheroid viability; assay: Anticancer human tumor 233499-124-R-J3-PDC cell line growth inhibition [CLK]; conditions: second compound 0.0316 µM; first compound 1 µM; stronger effect = lower value;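 further: spheroids exposed to the drug combinations for seven days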;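 on viability, T/C: percent viability relative to DMSO vehicle control wells taken as 100%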
Numbers only here, please. The scale is %.

* CC1COCCN1c1cc(C2(S(C)(=N)=O)CC2)nc(-c2ccnc3[nH]ccc23)n1 (stereo not drawn) + CN1CCN(c2cc(C(=O)Nc3cc4cc(-c5cnn(C)c5)ccc4cn3)ccn2)CC1 | 106
* Nc1ccccc1NC(=O)c1ccc(CNC(=O)OCc2cccnc2)cc1 + CNC(=O)c1ccc(Nc2nc(OC3CCCC3)c3c(-c4ccc5nc(C)oc5c4)c[nH]c3n2)c(OC)c1 | 79.7

Next item in the queue.
# viability, T/C (compound: C#Cc1c(F)ccc2cc(O)cc(-c3ncc4c(N5CC6CCC(C5)N6)nc(OCC56CCCN5CC(F)C6)nc4c3F)c12 (stereo not drawn) + CNC(=O)c1ccc(Nc2nc(OC3CCCC3)c3c(-c4ccc5nc(C)oc5c4)c[nH]c3n2)c(OC)c1 ) is 91

----------
Reported pIC50 values for a set of molecules
tested on: 233499-124-R-J3-PDC complex spheroid viability; assay: Anticancer human tumor 233499-124-R-J3-PDC cell line growth inhibition [CLK]; settings: curve of first compound; second compound 10 µM;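 further: spheroids exposed to the drug combinations for seven days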
pIC50: −log10 of the molar value.

- COC1C=CCC(C)C(C)S(=O)(=O)NC(=O)c2ccc3c(c2)N(CC2CCC21)CC1(CCCc2cc(Cl)ccc21)CO3 (stereo not drawn) + CN1CCN(c2cc(C(=O)Nc3cc4cc(-c5cnn(C)c5)ccc4cn3)ccn2)CC1: > 7.50

Entry CC(CO)NC(=O)c1cc(-c2ccc(Cl)cc2)nn(-c2cnn(C)c2)c1=O (stereo not drawn) + CNC(=O)c1ccc(Nc2nc(OC3CCCC3)c3c(-c4ccc5nc(C)oc5c4)c[nH]c3n2)c(OC)c1 , tested on 233499-124-R-J3-PDC complex spheroid viability, has a reported pIC50 of < 5.00

233499-124-R-J3-PDC complex spheroid viability data for CCc1c2c(nc3ccc(O)cc13)-c1cc3c(c(=O)n1C2)COC(=O)[C@]3(O)CC + CNC(=O)c1ccc(Nc2nc(OC3CCCC3)c3c(-c4ccc5nc(C)oc5c4)c[nH]c3n2)c(OC)c1 ; its pIC50: > 8.50

----------
system: 233499-124-R-J3-PDC complex spheroid viability; assay: Anticancer human tumor 233499-124-R-J3-PDC cell line growth inhibition [CLK]; conditions: second compound 0.0316 µM; first compound 1 µM; stronger effect = lower value;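 further: spheroids exposed to the drug combinations for seven days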;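 on viability, T/C: percent viability relative to DMSO vehicle control wells taken as 100%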
PROPERTY MEASURED: viability, T/C (%)
I only need the number, in %, no unit after it.

• C=CC(=O)N1CCN(c2nc(=O)n(-c3c(C)ccnc3C(C)C)c3nc(-c4c(O)cccc4F)c(F)cc23)C(C)C1 (centres undefined) + CNC(=O)c1ccc(Nc2nc(OC3CCCC3)c3c(-c4ccc5nc(C)oc5c4)c[nH]c3n2)c(OC)c1 = 93.6

So for CC(CO)NC(=O)c1cc(-c2ccc(Cl)cc2)nn(-c2cnn(C)c2)c1=O (centres undefined) + CN1CCN(c2cc(C(=O)Nc3cc4cc(-c5cnn(C)c5)ccc4cn3)ccn2)CC1 , the logged viability, T/C turned out to be 92

Just so you know, measured viability, T/C for CCc1c2c(nc3ccc(O)cc13)-c1cc3c(c(=O)n1C2)COC(=O)[C@]3(O)CC + CN1CCN(c2cc(C(=O)Nc3cc4cc(-c5cnn(C)c5)ccc4cn3)ccn2)CC1 came out at 41.7

The recorded viability, T/C for entry CC1COCCN1c1cc(C2(S(C)(=N)=O)CC2)nc(-c2ccnc3[nH]ccc23)n1 (centres undefined) + CNC(=O)c1ccc(Nc2nc(OC3CCCC3)c3c(-c4ccc5nc(C)oc5c4)c[nH]c3n2)c(OC)c1 equals 87.5

----------
tested on: 233499-124-R-J3-PDC complex spheroid viability; assay: Anticancer human tumor 233499-124-R-J3-PDC cell line growth inhibition [CLK]; conditions: second compound 0.0316 µM; first compound 3.16 µM; stronger effect = lower value;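 further: spheroids exposed to the drug combinations for seven days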;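 on viability, T/C: percent viability relative to DMSO vehicle control wells taken as 100%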
// values below are reported viability, T/C
The answer is to be given in %; state only the numeric part.

* CC(CO)NC(=O)c1cc(-c2ccc(Cl)cc2)nn(-c2cnn(C)c2)c1=O (configuration not stated) + CNC(=O)c1ccc(Nc2nc(OC3CCCC3)c3c(-c4ccc5nc(C)oc5c4)c[nH]c3n2)c(OC)c1 | 94
* CC(CO)NC(=O)c1cc(-c2ccc(Cl)cc2)nn(-c2cnn(C)c2)c1=O (configuration not stated) + CN1CCN(c2cc(C(=O)Nc3cc4cc(-c5cnn(C)c5)ccc4cn3)ccn2)CC1 | 98.5
* Nc1ccn(C2OC(CO)C(O)C2(F)F)c(=O)n1 (configuration not stated) + CNC(=O)c1ccc(Nc2nc(OC3CCCC3)c3c(-c4ccc5nc(C)oc5c4)c[nH]c3n2)c(OC)c1 | 22.5
* C=C(F)C(=O)N1CCN(c2nc(OCC3CCCN3C)nc3c2CCN(c2cccc4cccc(Cl)c24)C3)CC1CC#N (configuration not stated) + CNC(=O)c1ccc(Nc2nc(OC3CCCC3)c3c(-c4ccc5nc(C)oc5c4)c[nH]c3n2)c(OC)c1 | 93.5
* O=c1[nH]cc(F)c(=O)[nH]1 + CNC(=O)c1ccc(Nc2nc(OC3CCCC3)c3c(-c4ccc5nc(C)oc5c4)c[nH]c3n2)c(OC)c1 | 20.1

Record O=c1[nH]cc(F)c(=O)[nH]1 + CN1CCN(c2cc(C(=O)Nc3cc4cc(-c5cnn(C)c5)ccc4cn3)ccn2)CC1 , field viability, T/C: 28.6

Record COc1ccc([C@@H](O)c2cc(-c3ncnc4cc(N5CCOCC5)ccc34)c(F)cc2Cl)nn1 + CNC(=O)c1ccc(Nc2nc(OC3CCCC3)c3c(-c4ccc5nc(C)oc5c4)c[nH]c3n2)c(OC)c1 , field viability, T/C: 81.1

Notebook: Nc1ccccc1NC(=O)c1ccc(CNC(=O)OCc2cccnc2)cc1 + CNC(=O)c1ccc(Nc2nc(OC3CCCC3)c3c(-c4ccc5nc(C)oc5c4)c[nH]c3n2)c(OC)c1 , viability, T/C read as 23.1

Value of measured viability, T/C for the entry C=CC(=O)N1CCN(c2nc(=O)n(-c3c(C)ccnc3C(C)C)c3nc(-c4c(O)cccc4F)c(F)cc23)C(C)C1 (configuration not stated) + CN1CCN(c2cc(C(=O)Nc3cc4cc(-c5cnn(C)c5)ccc4cn3)ccn2)CC1 : 102

viability, T/C reported for this molecule C#Cc1c(F)ccc2cc(O)cc(-c3ncc4c(N5CC6CCC(C5)N6)nc(OCC56CCCN5CC(F)C6)nc4c3F)c12 (configuration not stated) + CN1CCN(c2cc(C(=O)Nc3cc4cc(-c5cnn(C)c5)ccc4cn3)ccn2)CC1 : 98.1

So for CC(=O)O[C@H]1C(=O)[C@@]2(C)[C@H]([C@H](OC(=O)c3ccccc3)[C@]3(O)C[C@H](OC(=O)[C@H](O)[C@@H](NC(=O)c4ccccc4)c4ccccc4)C(C)=C1C3(C)C)[C@]1(OC(C)=O)CO[C@@H]1C[C@@H]2O + CN1CCN(c2cc(C(=O)Nc3cc4cc(-c5cnn(C)c5)ccc4cn3)ccn2)CC1 , the logged viability, T/C turned out to be 14.4

The molecule listed as C=CC(=O)N1CCN(c2nc(=O)n(-c3c(C)ccnc3C(C)C)c3nc(-c4c(O)cccc4F)c(F)cc23)C(C)C1 (configuration not stated) + CNC(=O)c1ccc(Nc2nc(OC3CCCC3)c3c(-c4ccc5nc(C)oc5c4)c[nH]c3n2)c(OC)c1 has a reported viability, T/C of 96.3

Origin of measurements: PubChem BioAssay AID2060613
